B1: DVL3 (parent)
chain: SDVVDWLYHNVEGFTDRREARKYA

variants of: B1; assay: protein stability index of a GFP-peptide fusion (GPS, HEK-293T) (PSI 1-6); higher = more stable; conditions: c terminus: a fixed tail appended;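 also: lentivirally expressed fusions sorted by FACS into six bins by GFP to DsRed ratio, PSI derived from sequencing read proportions per bin multiplied by bin number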
parameter.measured: protein stability index

[[record]]
ordered_residues = "SDVVDWLYHNCEGFTDRREARKYA"
parameter_measured = "protein stability index"
measured_value = 3.07

[[record]]
ordered_residues = "SDVVDWLYHNIEGFTDRREARKYA"
parameter_measured = "protein stability index"
measured_value = 2.61

[[record]]
ordered_residues = "SDVVDWLYHWVEGFTDRREARKYA"
parameter_measured = "protein stability index"
measured_value = 2.63

[[record]]
ordered_residues = "SDDVDWLYHNVEGFTDRREARKYA"
parameter_measured = "protein stability index"
measured_value = 4.59

[[record]]
ordered_residues = "SDVVDWLYHNVEGFTDRREARYYA"
parameter_measured = "protein stability index"
measured_value = 1.96

[[record]]
ordered_residues = "SDVVDWLYHNVEGFLDRREARKYA"
parameter_measured = "protein stability index"
measured_value = 2.91

[[record]]
ordered_residues = "SDVVDWLYHNVEGFTDRREHRKYA"
parameter_measured = "protein stability index"
measured_value = 3.02

[[record]]
ordered_residues = "SDVVDWLYHNVEGFTDRREARKTA"
parameter_measured = "protein stability index"
measured_value = 3.55

[[record]]
ordered_residues = "SDVVDWLYHNVEGFTDRREARGYA"
parameter_measured = "protein stability index"
measured_value = 2.68

[[record]]
ordered_residues = "SDVVDWLYHNVEGRTDRREARKYA"
parameter_measured = "protein stability index"
measured_value = 2.56

[[record]]
ordered_residues = "SDVVDWLYHNVEGFTDRREERKYA"
parameter_measured = "protein stability index"
measured_value = 3.5

[[record]]
ordered_residues = "SDVVDWLYHNVEGFTDRCEARKYA"
parameter_measured = "protein stability index"
measured_value = 2.52

[[record]]
ordered_residues = "SDVVDWLYHNVEGFTDRRYARKYA"
parameter_measured = "protein stability index"
measured_value = 1.73

[[record]]
ordered_residues = "SDVVDWLYHNVEGFTDRREAQKYA"
parameter_measured = "protein stability index"
measured_value = 3.35

[[record]]
ordered_residues = "SDVVDWLYHNVFGFTDRREARKYA"
parameter_measured = "protein stability index"
measured_value = 1.98

[[record]]
ordered_residues = "SDVVDWLYHNVEGFTDRRIARKYA"
parameter_measured = "protein stability index"
measured_value = 2.25

[[record]]
ordered_residues = "SDVVDWLYHNVEGQTDRREARKYA"
parameter_measured = "protein stability index"
measured_value = 3.86

[[record]]
ordered_residues = "SDVVDWLYHNVEGFTDRREARKPA"
parameter_measured = "protein stability index"
measured_value = 3.97

[[record]]
ordered_residues = "SLVVDWLYHNVEGFTDRREARKYA"
parameter_measured = "protein stability index"
measured_value = 2.12

[[record]]
ordered_residues = "SDVVKWLYHNVEGFTDRREARKYA"
parameter_measured = "protein stability index"
measured_value = 2.36

[[record]]
ordered_residues = "SDVVDWLYHNVLGFTDRREARKYA"
parameter_measured = "protein stability index"
measured_value = 2.08

[[record]]
ordered_residues = "SDVVDWLYHLVEGFTDRREARKYA"
parameter_measured = "protein stability index"
measured_value = 2

[[record]]
ordered_residues = "SDVVDWLYHNVEGFTDRREARKDA"
parameter_measured = "protein stability index"
measured_value = 3.95

[[record]]
ordered_residues = "SDVVDWLYHNVEGFKDRREARKYA"
parameter_measured = "protein stability index"
measured_value = 2.56

[[record]]
ordered_residues = "SDHVDWLYHNVEGFTDRREARKYA"
parameter_measured = "protein stability index"
measured_value = 3.39

[[record]]
ordered_residues = "SDVEDWLYHNVEGFTDRREARKYA"
parameter_measured = "protein stability index"
measured_value = 4.08

[[record]]
ordered_residues = "SDVVDWVYHNVEGFTDRREARKYA"
parameter_measured = "protein stability index"
measured_value = 3.5

[[record]]
ordered_residues = "SDVVDWLYHNVEGFTDRREARKHA"
parameter_measured = "protein stability index"
measured_value = 3.73

[[record]]
ordered_residues = "SDVVDWFYHNVEGFTDRREARKYA"
parameter_measured = "protein stability index"
measured_value = 2.12

[[record]]
ordered_residues = "SDVVDWLYHNVEGFTDRREARKFA"
parameter_measured = "protein stability index"
measured_value = 3.17

[[record]]
ordered_residues = "SDVVDWLDHNVEGFTDRREARKYA"
parameter_measured = "protein stability index"
measured_value = 4.61

[[record]]
ordered_residues = "SDVCDWLYHNVEGFTDRREARKYA"
parameter_measured = "protein stability index"
measured_value = 2.77

[[record]]
ordered_residues = "SDVVDWAYHNVEGFTDRREARKYA"
parameter_measured = "protein stability index"
measured_value = 3.54

[[record]]
ordered_residues = "SDVVDWLYHAVEGFTDRREARKYA"
parameter_measured = "protein stability index"
measured_value = 2.1

[[record]]
ordered_residues = "SDVVDWLYHNVEGFTDRREVRKYA"
parameter_measured = "protein stability index"
measured_value = 1.83

[[record]]
ordered_residues = "SDVVDWLYHNVEGFTDRREARCYA"
parameter_measured = "protein stability index"
measured_value = 2.13

[[record]]
ordered_residues = "SDVVDWLYHNVEGFTDRREARMYA"
parameter_measured = "protein stability index"
measured_value = 2.06

[[record]]
ordered_residues = "FDVVDWLYHNVEGFTDRREARKYA"
parameter_measured = "protein stability index"
measured_value = 2.23

[[record]]
ordered_residues = "SDVVDWLYHNVEYFTDRREARKYA"
parameter_measured = "protein stability index"
measured_value = 2.1

[[record]]
ordered_residues = "SDVVDWLYHNVEGFTDRREANKYA"
parameter_measured = "protein stability index"
measured_value = 3.21

[[record]]
ordered_residues = "SDVVDWLYHNVEGFTDCREARKYA"
parameter_measured = "protein stability index"
measured_value = 3.43

[[record]]
ordered_residues = "SDVVDWLYHNVEGFTDRREAVKYA"
parameter_measured = "protein stability index"
measured_value = 2.78

[[record]]
ordered_residues = "SDVVSWLYHNVEGFTDRREARKYA"
parameter_measured = "protein stability index"
measured_value = 2.5

[[record]]
ordered_residues = "SDVVDVLYHNVEGFTDRREARKYA"
parameter_measured = "protein stability index"
measured_value = 4.58

[[record]]
ordered_residues = "SDVVDWLYHNVEGFFDRREARKYA"
parameter_measured = "protein stability index"
measured_value = 2.15

[[record]]
ordered_residues = "QDVVDWLYHNVEGFTDRREARKYA"
parameter_measured = "protein stability index"
measured_value = 2.9

[[record]]
ordered_residues = "SDVVDWLYTNVEGFTDRREARKYA"
parameter_measured = "protein stability index"
measured_value = 2.67

[[record]]
ordered_residues = "SDVVDWLYHNVEGFTIRREARKYA"
parameter_measured = "protein stability index"
measured_value = 3.24

[[record]]
ordered_residues = "SDVVDWLYHNVEGFTTRREARKYA"
parameter_measured = "protein stability index"
measured_value = 2.66

[[record]]
ordered_residues = "SDVVDWLYHNVEGFTDRREADKYA"
parameter_measured = "protein stability index"
measured_value = 3.52

[[record]]
ordered_residues = "SSVVDWLYHNVEGFTDRREARKYA"
parameter_measured = "protein stability index"
measured_value = 2.74

[[record]]
ordered_residues = "SDVVDYLYHNVEGFTDRREARKYA"
parameter_measured = "protein stability index"
measured_value = 3.6

[[record]]
ordered_residues = "SDVVDWLYHNVELFTDRREARKYA"
parameter_measured = "protein stability index"
measured_value = 2.28

[[record]]
ordered_residues = "SAVVDWLYHNVEGFTDRREARKYA"
parameter_measured = "protein stability index"
measured_value = 1.85

[[record]]
ordered_residues = "SDVVDWLYHNVEGFTDRREARKYK"
parameter_measured = "protein stability index"
measured_value = 3.12

[[record]]
ordered_residues = "SDVVDWLYLNVEGFTDRREARKYA"
parameter_measured = "protein stability index"
measured_value = 2.55

[[record]]
ordered_residues = "SDVVDWLYHNVIGFTDRREARKYA"
parameter_measured = "protein stability index"
measured_value = 1.94

[[record]]
ordered_residues = "SDVVDWLYHNVEGFTDRREARKVA"
parameter_measured = "protein stability index"
measured_value = 3.6

[[record]]
ordered_residues = "SPVVDWLYHNVEGFTDRREARKYA"
parameter_measured = "protein stability index"
measured_value = 2.62

[[record]]
ordered_residues = "SDVVDWLYHNVEGFTYRREARKYA"
parameter_measured = "protein stability index"
measured_value = 2.06

[[record]]
ordered_residues = "SDVVDWLSHNVEGFTDRREARKYA"
parameter_measured = "protein stability index"
measured_value = 3.56

[[record]]
ordered_residues = "SDVVDWLYHNVEGFTDQREARKYA"
parameter_measured = "protein stability index"
measured_value = 3.67

[[record]]
ordered_residues = "SDVVDWLYHNVEGFTDRREARWYA"
parameter_measured = "protein stability index"
measured_value = 2.06

[[record]]
ordered_residues = "SDVVDWLYHNVEGFVDRREARKYA"
parameter_measured = "protein stability index"
measured_value = 2.85


Where do these numbers come from? They come from the supplement of paper PMC10567573.
